system: CAKI-1; assay: NCI tumour cell line growth inhibition, 48 h
Calls of active or inactive are those of the source. No stated cut-off is given here; in the data, active = GI50 up to about 1.1 µM and inactive = higher.
Response enum: active, inactive

Here's what some known entries look like.
CC1=NN(C(=O)c2ccc(C)cc2)C(=O)C1/N=N/c1ccccc1C(=O)O (centres undefined) : inactive
COc1ccc(CN(O)C2C(CO)OC(n3cc(I)c(=O)[nH]c3=O)C2O)cc1 (centres undefined) : inactive
CNC(=O)CCC(NC(C)=O)C(=O)NC(Cc1ccc(NC(=O)CCCCC(C)=O)cc1)C(=O)NC(CCC(=O)NC)C(=O)NC (centres undefined) : inactive
CCCCC(C(=O)C(=O)Nc1ccc(C)cc1C)C(=O)C(C)C (centres undefined) : inactive

# ---- query compound ----
Query string: Look up the recorded call for `CCOC(=O)C(=O)CC(=O)C1=C(c2ccccc2OC)CC(c2cccs2)=CC1=O` in this test.
Result string: inactive

====

Listed here are molecules together with their documented GI50.
tested on: SK-OV-3; assay: NCI tumour cell line growth inhibition, 48 h
Where a name gives a salt, the structure may show the parent alone. Activity calls are given as the source filed them. Cut-off read from the data, not from the text of the source: active = GI50 up to about 1.1 µM and inactive = higher.

Cc1ccc2c(c1)C(=O)/C(=C\c1ccc(Cl)cc1)CCS2(=O)=O : 7.82 µM (inactive)

Query string: Requested read-out: GI50. Entry: `CCOP(=O)(OCC)/C(C#N)=C/c1ccc(-c2ccc(F)cc2F)o1`
Result string: 14 µM (inactive)

Query string: Requested read-out: GI50. Entry: NCCSSCCN [CYSTAMINE HYDROCHLORIDE]
Result string: > 100 µM (inactive)

====

test system: DMS-114; experiment: NCI tumour cell line growth inhibition, 48 h
Active and inactive are the calls of the source. Cut-off read from the data, not from the text of the source: active = GI50 up to about 1.1 µM and inactive = higher.
observation type: GI50

Query string: Identify the measured GI50 of COc1ccc(CN(O)C2C(CO)OC(n3cc(I)c(=O)[nH]c3=O)C2O)cc1 (configuration not stated) for DMS-114.
Result string: > 100 µM (inactive)

Query string: Identify the measured GI50 of CCOC(=O)[C@H]1Nc2ccc([N+](=O)[O-])cc2C2c3ccccc3CC21 (some centres not stated) for DMS-114.
Result string: 15.9 µM (inactive)

Query string: Identify the measured GI50 of `Nc1ccc2c(SCC(=O)Nc3ccccc3-c3ccccc3NC(=O)CSc3c4ccccc4nc4cc(N)ccc34)c3ccccc3nc2c1` for DMS-114.
Result string: 18.9 µM (inactive)

Query string: Identify the measured GI50 of CCCCCCCCCCCCCCCc1ccc(OCC(O)CO)cc1 (configuration not stated) for DMS-114.
Result string: 29.7 µM (inactive)

Query string: Identify the measured GI50 of `O=C(CCC(=O)Nc1ccc(Cl)c(Cl)c1)CC(=O)c1ccc(F)cc1` for DMS-114.
Result string: > 100 µM (inactive)

Query string: Identify the measured GI50 of C/C=C1\CCC2c3[nH]c4ccccc4c3CCN2C1 (configuration not stated) for DMS-114.
Result string: 91.8 µM (inactive)

Query string: Identify the measured GI50 of N=C(N)/N=C(/C=C/c1ccccc1)CC1OC(=O)c2ccccc21 (configuration not stated) for DMS-114.
Result string: > 100 µM (inactive)

Query string: Identify the measured GI50 of `CCOC(=O)c1nc(-c2ccccc2)oc1OCC` for DMS-114.
Result string: > 100 µM (inactive)

Query string: Identify the measured GI50 of OCC(O)COc1ccc(Br)cc1 (configuration not stated) for DMS-114.
Result string: > 100 µM (inactive)

Query string: Identify the measured GI50 of `C[C@]12CC=CC(=O)[C@@]1(C)CCC(=O)C2` for DMS-114.
Result string: > 100 µM (inactive)

Query string: Identify the measured GI50 of O=C1C2Cc3ccccc3CN2C(=O)N1CCN1CCCC1 (configuration not stated) for DMS-114.
Result string: > 100 µM (inactive)

Query string: Identify the measured GI50 of `CCOC(=O)NC(=O)c1cn(CC(=O)NCC(=O)NCC(=O)NCCCN2CCN(CCCNC(=O)CNC(=O)CNC(=O)Cn3cc(C(=O)NC(=O)OCC)c(=O)[nH]c3=O)CC2)c(=O)[nH]c1=O` for DMS-114.
Result string: > 100 µM (inactive)

Query string: Identify the measured GI50 of `O=C1CCN2CCC(=O)c3c2c(cc2ccccc32)N1` for DMS-114.
Result string: > 100 µM (inactive)

Query string: Identify the measured GI50 of `CCOC(=O)/C(O)=C(/C(=O)OC)c1ccc(Cl)cc1` for DMS-114.
Result string: > 100 µM (inactive)

Query string: Identify the measured GI50 of `COc1ccc(OC)c(/C=C/C(=O)C(C)(C)C)c1` for DMS-114.
Result string: 15.2 µM (inactive)

Query string: Identify the measured GI50 of `COC(=O)CCCCCOS(=O)(=O)c1ccc(C)cc1` for DMS-114.
Result string: > 100 µM (inactive)

Query string: Identify the measured GI50 of CSc1nc(C)cc(=O)n1C1OC(COC(C)=O)C(OC(C)=O)C(OC(C)=O)C1OC(C)=O (configuration not stated) for DMS-114.
Result string: > 100 µM (inactive)

====

system: MOLT-4; test: NCI tumour cell line growth inhibition, 48 h
Active and inactive are the calls of the source. Rule as the data show it: active = GI50 up to about 1.1 µM and inactive = higher. *1 amine or outer side, *2 acyl side, *3 side chain or, on linkers, in order; H or OH if unused. Where a SMILES comes first, the peptide text is derived from it. Bridges are numbered along the chain shown (N, C = ends). [ ]: non-standard residue; d: D form. The star is where a group is joined. X36 = O=C(C(CCCCNO[*:3])N[*:1])[*:2]; Fmoc = O=C(OCC1c2ccccc2-c2ccccc21)*
observation type: GI50

Example results:
CCCNC(=O)c1cc(NC(=O)c2cc(NC(=O)/C=C/c3ccccc3)c(OC)c(OC)c2)c(OC)c(OC)c1 : > 100 µM (inactive)
CCOC(=O)c1nc2ccc(C(F)(F)F)cc2nc1NCc1ccc(F)cc1 : 42.8 µM (inactive)

Query string: Requested read-out: GI50. Entry: `O=C(/C=C\c1cccc2ccccc12)c1ccc(Br)cc1`
Result string: 31 µM (inactive)

Query string: Requested read-out: GI50. Entry: `COc1ccc2c(N=[N+]=[N-])c(-c3ccccc3)c(=O)oc2c1`
Result string: 21.5 µM (inactive)

Query string: Requested read-out: GI50. Entry: `COc1cc2c(cc1C)NC(=O)/C2=C/c1cccnc1`
Result string: 1.23 µM (inactive)

Query string: Requested read-out: GI50. Entry: Cc1cccc(Nc2cc(Cl)nc(SCC(=O)O)n2)c1C [PIRINIXIC ACID]
Result string: 63.1 µM (inactive)

Query string: Requested read-out: GI50. Entry: NC(=O)CNC(=O)C1CCCN1C(=O)C1CCCCNOC(=O)CCC(NC(=O)OCC2c3ccccc3-c3ccccc32)C(=O)NC(Cc2c[nH]c3ccccc23)C(=O)N1 (stereo not given) (Fmoc-EW[X36]PG-NH2; ester 1-3; configuration not given here)
Result string: > 100 µM (inactive)

Query string: Requested read-out: GI50. Entry: `N#C/C(=C\c1ccc[nH]1)C(=O)c1ccccc1`
Result string: > 100 µM (inactive)

Query string: Requested read-out: GI50. Entry: COc1cc2c3c(c1OC)-c1ccccc1C(C(OC(C)=O)c1ccccc1)C3N(C)CC2 (stereo not given)
Result string: 7.59 µM (inactive)

====

tested on: OVCAR-4; experiment: NCI tumour cell line growth inhibition, 48 h
The source made the active and inactive calls. Rule as the data show it: active = GI50 up to about 1.1 µM and inactive = higher.
observation type: GI50

CC(CCC#N)(CCC#N)C(=O)CC(O)(C(F)(F)F)C(F)(F)F : 5.02 µM (inactive)

Shift focus to the following entry.
Query string: Requested read-out: GI50. Entry: CCCCC(C(=O)C(=O)Nc1ccc(C)cc1C)C(=O)C(C)C (stereo unspecified)
Result string: > 100 µM (inactive)

====

test system: OVCAR-8; assay: NCI tumour cell line growth inhibition, 48 h
The source made the active and inactive calls. No stated cut-off is given here; in the data, active = GI50 up to about 1.1 µM and inactive = higher.
observation type: GI50

Example results:
CNC(=S)/C(C#N)=C(\N)N1CCN(C)CC1 : > 100 µM (inactive)
C=CCCC(O)c1cc(C)c(O)c(C)c1 (centres undefined) : > 100 µM (inactive)
NC(=O)C(N)CC12CC3CC(CC(C3)C1)C2 (centres undefined) : 23.9 µM (inactive)

Shift focus to the following entry.
Query string: Requested read-out: GI50. Entry: `O=C1C(Cl)=C(Cl)C(=O)C2=C1C1c3ccccc3C2c2ccccc21`
Result string: > 100 µM (inactive)

====

test system: UO-31; test: NCI tumour cell line growth inhibition, 48 h
Active and inactive are the calls of the source. Rule as the data show it: active = GI50 up to about 1.1 µM and inactive = higher. *1 amine or outer side, *2 acyl side, *3 side chain or, on linkers, in order; H or OH if unused. Where a SMILES comes first, the peptide text is derived from it. Bridges are numbered along the chain shown (N, C = ends). [ ]: non-standard residue; d: D form. The star is where a group is joined. X36 = O=C(C(CCCCNO[*:3])N[*:1])[*:2]; Fmoc = O=C(OCC1c2ccccc2-c2ccccc21)*
Response enum: y = active, n = inactive

Here's what some known entries look like.
C=C1CC(COc2ccc3ccc(=O)oc3c2)(c2ccccc2)OC1=O (configuration not stated) : n
CCOC(=O)N1N(c2ccccc2)C(=O)C1(c1ccccc1)c1ccccc1 : n
C=C1C2C[C@@H]3OC4CC5O[C@]6(CC5OC4C(C)C3OC(=O)CC3CC[C@@H]4OC5C7OC8C[C@](CCC9CC(=C)[C@H](CCC(C[C@H]1C)O2)O9)(OC7C4O3)O[C@@H]85)C[C@@H]1O[C@@]2(CC(C)[C@@H]3OC(CC(=O)CCO)C(O)C[C@@H]3O2)CC(C)[C@@H]1O6 (some centres not stated) : y
COc1ccc(OC)c2c1-c1nnnn1CCC2(C)C : n
NC(=O)CNC(=O)C1CCCN1C(=O)C1CCCCNOC(=O)CCC(NC(=O)OCC2c3ccccc3-c3ccccc32)C(=O)NC(Cc2c[nH]c3ccccc23)C(=O)N1 (configuration not stated) (Fmoc-EW[X36]PG-NH2; ester 1-3; configuration not given here) : n
Cc1cccc(N2C(=O)C3c4[nH]c5ccccc5c4C4CCC(C(C)(C)C)CC4C3C2=O)c1C (configuration not stated) : n
O=C1c2ccccc2-c2ccc(/N=[N+](/[O-])c3ccc4c(c3)C(=O)c3ccccc3-4)cc21 : n
Clc1ccc(Cc2nc3cc(Cl)ccc3o2)cc1 : n
Cc1ccc2c(c1)C(=O)/C(=C\c1ccc(Cl)cc1)CCS2(=O)=O : n
CCOC(=O)N1CCC2(CC1)CC(=O)N(Nc1ccccc1)C2=O : n

Query string: Look up the recorded call for `COc1ccc(NC(=O)c2cc(NC(=O)/C=C/c3ccccc3)c(OC)c(OC)c2)cc1` in this test.
Result string: n

Query string: Look up the recorded call for COC(O)C12OC3CO[Si](C(C)C)(C(C)C)O[Si](C(C)C)(C(C)C)OC3C1Oc1nc(=O)ccn12 (configuration not stated) in this test.
Result string: n

Query string: Look up the recorded call for `O=C1CCC(=O)N1Cc1ccccc1/N=[N+](\[O-])c1ccccc1CN1C(=O)CCC1=O` in this test.
Result string: n

Query string: Look up the recorded call for `NC(=O)c1c2c(n3ccccc13)C(=O)c1ccccc1C2=O` in this test.
Result string: n

Query string: Look up the recorded call for `CCOC(=O)C(=CNc1ccc(F)c(F)c1)C(=O)OCC` in this test.
Result string: n

Query string: Look up the recorded call for `CNNC1=NS(=O)(=O)c2cc(C)c(Cl)cc2S1` in this test.
Result string: y

Query string: Look up the recorded call for CN1C(=O)C(O)C[C@@H]1c1ccccc1 (some centres not stated) in this test.
Result string: n

Query string: Look up the recorded call for `NC(=O)N/N=C1\C[C@H]2CCCC[C@H]2C1` in this test.
Result string: n

Query string: Look up the recorded call for `Cc1ccc(C(=O)/C=C2\Nc3cccnc3NC2=O)cc1` in this test.
Result string: n

Query string: Look up the recorded call for `O=C(c1cc(Cl)cc(Cl)c1)N(C(=S)OC12CC3CC(CC(C3)C1)C2)c1ccccc1` in this test.
Result string: n

Query string: Look up the recorded call for CCOC(=O)C1(C)CCC(C(=O)OC)C1=O (configuration not stated) in this test.
Result string: n

Query string: Look up the recorded call for CCC1CC(C)=CCN1S(=O)(=O)c1ccc(C)cc1 (configuration not stated) in this test.
Result string: n
